system.name: Melatonin receptor type 1A (Homo sapiens, UniProt P48039)
Sequence (P48039 whole entry): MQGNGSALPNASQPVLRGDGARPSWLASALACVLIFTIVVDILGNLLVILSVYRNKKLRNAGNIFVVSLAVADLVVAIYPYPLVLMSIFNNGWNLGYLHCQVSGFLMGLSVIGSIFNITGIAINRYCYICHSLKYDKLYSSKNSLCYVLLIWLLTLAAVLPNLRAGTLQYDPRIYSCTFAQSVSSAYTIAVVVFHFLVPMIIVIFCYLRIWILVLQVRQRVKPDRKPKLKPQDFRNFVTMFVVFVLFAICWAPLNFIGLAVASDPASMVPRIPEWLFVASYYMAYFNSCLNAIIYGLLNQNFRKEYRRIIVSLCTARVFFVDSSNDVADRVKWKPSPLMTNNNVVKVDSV
recorded.metric: Ki (µM)

CC(=O)NCCN(C)c1cccc(OCCCCCCCCCCOc2cccc(N(C)CCNC(C)=O)c2)c1; 0.00398
COc1cccc(N(CCNC(C)=O)C(=O)CCCCC(=O)N(CCNC(C)=O)c2cccc(OC)c2)c1; 0.288

1 = CC(=O)NCCN(C)c1cccc(OCCCCOc2cccc(N(C)CCNC(C)=O)c2)c1
2 = CC(=O)NCCN(C)c1cccc(OCCCOc2cccc(N(C)CCNC(C)=O)c2)c1
Could you point out whether the larger Ki belongs to 1 or to 2 ? Let me know the label of the one you choose.
1

----------
system.name: Melatonin receptor type 1A (Homo sapiens, UniProt P48039)
protocol.description: Intrinsic activity at human cloned MT1 receptor expressed in mouse NIH-3T3 cells assessed as stimulation of [35S]GTPgammaS binding relative to melatonin
Format: functional, cell-based
condition.summary: NIH3T3
recorded.metric: Intrinsic activity

Illustrative cases are given below, each with its answer.
CC(=O)NCCN(C)c1cccc(OCCCCCCCCCCOc2cccc(N(C)CCNC(C)=O)c2)c1; 0.42
CC(=O)NCCN(C)c1cccc(OCCCOc2cccc(N(C)CCNC(C)=O)c2)c1; 0.26

1 = CC(=O)NCCN(C)c1cccc(OCCCCOc2cccc(N(C)CCNC(C)=O)c2)c1
2 = CC(=O)NCCN(C)c1cccc(OCCCCCCCCOc2cccc(N(C)CCNC(C)=O)c2)c1
# return whichever of 1 and 2 has the smaller Intrinsic activity Respond with the label that goes with your answer.
1
